Test system: rat model of edema induced by carragenine
Test: Carrageenan-induced paw edema
Assay type: in vivo
Conditions: 1 h, 60 min, 20 mg/Kg, read-out: Edema inhibition 60 min, MPE
Listed here are compounds together with their documented inhibition in vivo at 20 mg/kg.
A number alone suffices; assume %.

Some compounds with known inhibition in vivo at 20 mg/kg results, for comparison:
• Cc1c(CC(=O)OC(C)C)cc(-c2ccc(S(C)(=O)=O)cc2)n1-c1cccc(F)c1 = 87
• CCCCOC(=O)Cc1cc(-c2ccc(S(C)(=O)=O)cc2)n(-c2ccc(F)c(F)c2)c1C = 74
• CCOC(=O)Cc1cc(-c2ccc(S(C)(=O)=O)cc2)n(-c2ccccc2)c1C [Compound 1b, reference compound] = 10

Moving on to the next compound.
Noted for CCOC(=O)Cc1cc(-c2ccc(S(C)(=O)=O)cc2)n(-c2ccc(F)c(F)c2)c1C [Compound 5b, reference compound] : its inhibition in vivo at 20 mg/kg reads 30
